- System: UACC-62 melanoma
- experiment_notes: NCI tumour cell line growth inhibition, 48 h
# Lookup of reported TGI keyed by entry

INSERT INTO measurements (molecule, assay_system, observable, result) VALUES
  ('COc1ccc(-c2cc(-c3ccc(C)cc3)n(C3OC(COC(C)=O)C(OC(C)=O)C(OC(C)=O)C3OC(C)=O)c(=S)c2C#N)cc1 (centres undefined)', 'UACC-62 melanoma', 'TGI', '> 100 µM');

Look up TGI for this molecule: CC1=NNC(=O)C1C1(C(=O)O)CC(c2c[nH]c3ccccc23)=NC(=S)N1 (centres undefined)
> 100 µM

Field entry: S=C1SCC2CCCN12 (centres undefined)
> 100 µM

Field entry: CCC1c2[nH]c3ccccc3c2C[C@H]2C(=O)NC(C)C(=O)N12 (some centres undefined)
> 100 µM

Field entry: N#CC1=C(N)NC(=O)C(C#N)C12Nc1ccccc1S2 (centres undefined)
> 100 µM

Field entry: COCN1COCN(C)C1=O
> 100 µM

###

- Test system: TK-10 renal
- experiment_notes: NCI tumour cell line growth inhibition, 48 h
# Lookup of reported GI50 keyed by entry

Worked examples, 2 compounds total:
INSERT INTO assay_data (structure_notation, assay_system, result) VALUES
  ('COc1ccc(-c2cn(C)c3c2-n2cccc2C3=O)cc1O', 'TK-10 renal', '3.05 µM'),
  ('Nc1c(C(=O)c2cccc(-c3cccnc3)c2)cnn1-c1ccc(F)cc1', 'TK-10 renal', '> 25 µM');

Look up GI50 for this compound: O=C(CCN1CCCC1)Nc1ccc2c(Nc3ccc(F)cc3)c3ccccc3nc2c1
1.66 µM

Field entry: O=C1c2c(c3c4cc(F)ccc4oc3c3[nH]c4ccccc4c23)C(=O)N1O
12 µM

###

# Lookup of reported TGI keyed by entry
- Test system: SR leukemia
- experiment_notes: NCI tumour cell line growth inhibition, 48 h

Worked examples, 3 compounds total:
INSERT INTO assay_data (compound, result) VALUES
  ('Cc1nc(-n2nc(-c3ccccc3)cc2-c2ccccc2)sc1C(=O)CC(=O)C(=O)Nc1ccc(Cl)c(Cl)c1', '> 100 µM'),
  ('O=C(O)c1ccc2c(O)c(O)ccc2c1', '13.8 µM'),
  ('CC(=O)OCC1OC(n2c(C)c(C)cc(C#N)c2=S)C(OC(C)=O)C(OC(C)=O)C1OC(C)=O (centres undefined)', '> 100 µM');

// below: TGI requested for another compound
Query the reported TGI for SR leukemia; item: COC1CCCc2c(OC(C)=O)ccc(OC(C)=O)c21 (centres undefined)
> 100 µM

###

- Tested on: 786-0 renal
- experiment_notes: NCI tumour cell line growth inhibition, 48 h
observable: GI50

Look up GI50 for this compound: O=[N+]([O-])c1ccc(Sc2cccc[n+]2[O-])c2nonc12
9.18 µM

Field entry: OCc1c(-c2cccs2)oc(-c2cccs2)c1CO
> 100 µM

Field entry: COc1ccc(-n2cc(-c3cc(OC)c(OC)c(OC)c3)nc2SCc2cccc(C#N)c2)cc1OC
> 100 µM

Field entry: O=C(CSSCC(=O)c1ccc(Cl)cc1)c1ccc(Cl)cc1
4.41 µM

Field entry: CN(c1cccc(C(=O)O)c1)c1cc(O/N=[N+](\[O-])N(C)C)c([N+](=O)[O-])cc1[N+](=O)[O-]
> 100 µM

###

- Tested on: HOP-62 NSCLC
- experiment_notes: NCI tumour cell line growth inhibition, 48 h
# Lookup of reported TGI keyed by entry

Worked examples, 5 compounds total:
INSERT INTO measurements (compound, assay_system, result) VALUES
  ('CN1CCN(C2=C(Cl)C(=O)c3ccccc3C2=O)CC1', 'HOP-62 NSCLC', '5.12 µM'),
  ('CC(C)(C)OC(=O)NC(CSCc1ccc(C(=O)c2ccccc2)cc1)C(=O)N1CCN(CCCCN2c3ccccc3Sc3cc(N=[N+]=[N-])ccc32)CC1 (stereo not given)', 'HOP-62 NSCLC', '> 100 µM'),
  ('O=C(n1c2ccccc2c2n[nH]c(=S)nc21)C(F)(F)F', 'HOP-62 NSCLC', '> 100 µM'),
  ('Cn1cc(-c2ccc3c4ccccc4n(C)c3c2)c2ccccc21', 'HOP-62 NSCLC', '> 100 µM'),
  ('CC1=C[P+](c2ccccc2)(c2ccccc2)c2ccccc2O1', 'HOP-62 NSCLC', '59 µM');

Look up TGI for this compound: COc1ccc2[nH]c3c(C)c4c(c(C)c3c2c1)CN(C)C=C4
3.53 µM

Field entry: COc1c(C(=O)/C(=N/Nc2ccc(C(=O)O)cc2)C(C)=O)c(O)cc2occc12
> 100 µM

Field entry: COC(=O)c1ccc(OCCn2nnc(C(=O)NN)c2C(=O)NN)cc1
> 100 µM

Field entry: COc1ccc(/C=C\c2cc(OC)c(OC)c(OC)c2)cc1NC(=O)/C=C/c1ccc(OC)c(OC)c1
> 100 µM

Field entry: COc1ccc2c(c1)/C(=C\c1c(Cl)nc3n1CCS3)C(=O)N2
> 100 µM

###

- Test system: CCRF-CEM leukemia
- experiment_notes: NCI tumour cell line growth inhibition, 48 h
observable: TGI

INSERT INTO results (compound, observable, result) VALUES
  ('COc1c(C(=O)/C(=N/Nc2ccc(C(=O)O)cc2)C(C)=O)c(O)cc2occc12', 'TGI', '> 100 µM'),
  ('COc1ccc2c(=O)c(-c3cc(OC)c(OC)cc3OC)coc2c1', 'TGI', '> 100 µM'),
  ('O=C(Cn1c2ccc(Br)cc2c2nc3ccccc3nc21)NCc1ccccc1', 'TGI', '> 100 µM'),
  ('CN(C)N1C(=O)C(=O)N(c2cccc3ccccc23)C1=O', 'TGI', '> 10 µM'),
  ('COc1ccc(Cn2cc3c(c2-c2ccccc2)CCc2cnoc2-3)cc1', 'TGI', '> 100 µM');

Look up TGI for this compound: CC1=CC(=O)NP(=O)(Oc2ccc(Cl)cc2)N1 (configuration not stated)
> 100 µM

Field entry: CC(NCCN(C)C)C1CCC2C3CCc4cc(O)ccc4C3CCC12C (configuration not stated)
3.47 µM

Field entry: Cc1cccc(NC(=O)c2c(N)[n+]([O-])c3ccccc3[n+]2[O-])c1
> 100 µM

Field entry: CCCCn1c(=O)[nH]c2c(N)ncnc21
> 100 µM

Field entry: COc1ccc(-c2cn(C)c3c2-n2cccc2C3=O)cc1O
25.4 µM

Field entry: O=C(Nc1cc(Cl)c(I)c(Cl)c1)C(F)(F)F
66.4 µM

Field entry: CC(=O)c1cc2c(Br)cccc2oc1=O
> 100 µM

###

- Tested on: NCI-H460 lung
- experiment_notes: NCI tumour cell line growth inhibition, 48 h
# Lookup of reported TGI keyed by entry

Worked examples, 3 molecules total:
INSERT INTO results (molecule, result) VALUES
  ('CC(C)(C)OC(=O)NCCCCCCCCCn1c2c(c3ccccc3c1=O)C(=O)c1ccccc1-2', '> 100 µM'),
  ('CC(=O)OC1(Sc2ccccc2)CC2[C@H]3COC(C)(C)O[C@H]3CC[C@@]2(C)CC1=O (some centres undefined)', '> 100 µM'),
  ('CN[C@@H](C)C(=O)N[C@H](C(=O)N1CCC[C@H]1c1nc(C(=O)c2ccc(F)cc2)cs1)C1CCCCC1', '> 72.8 µM');

// below: TGI requested for another molecule
Look up TGI for this molecule: Cc1[nH]c(=O)nc(N/N=C/c2c3ccccc3c(Cl)c3ccccc23)c1C(=O)Nc1ccc(Cl)cc1
> 100 µM

###

# Lookup of reported TGI keyed by entry
- Test system: CCRF-CEM leukemia
- experiment_notes: NCI tumour cell line growth inhibition, 48 h

Worked examples, 5 compounds total:
INSERT INTO assay_data (compound, observable, result) VALUES
  ('COc1cc(/C=C/C(=O)c2c(C)n([O-])c3ccccc3[n+]2=O)cc(OC)c1OC', 'TGI', '23.3 µM'),
  ('COc1ccc(N2C(=O)C3ON(Cc4ccc(CC(N)=O)cc4)C(c4c5ccccc5c(C)c5ccccc45)C3C2=O)cc1 (stereo not given)', 'TGI', '> 100 µM'),
  ('CC(C)(C)C1=CC(=N/N=c2\scc(-c3ccccc3)n2Cc2ccccc2)C=C(C(C)(C)C)C1=O', 'TGI', '> 100 µM'),
  ('COc1cc(/C=C/c2ccc(OC)c(OC)c2)oc(=O)c1', 'TGI', '> 250 µM'),
  ('N[C@H]1CCC[C@@H](O)C1O (stereo not given in full)', 'TGI', '> 100 µM');

Look up TGI for this compound: COc1ccc(/C=C\c2cc(OC)c(OC)c(OC)c2)cc1NC(=O)/C=C/c1ccc(OC)c(OC)c1
> 100 µM

Field entry: CC(C)(C)OC(=O)NCCCCCCCCCn1c2c(c3ccccc3c1=O)C(=O)c1ccccc1-2
> 100 µM

Origin of the recorded values: PubChem BioAssay (NCI)
